The origin of these recorded values is patent US20020137929A1.

System: ZEAMX (Corn, Field)
Assay: Postemergence herbicidal evaluation
Assay type: in vivo, Zea mays
Settings: postemergence, rate 0.0156 kg/ha
outcome-measure: ZEAMX herbicidal rating
Give only the figure.

Some solved cases for reference:
compound	ZEAMX herbicidal rating
CC1SC(=Nc2cc(-n3c(=O)cc(C(F)(F)F)n(C)c3=O)c(F)cc2Cl)N(C)C1=O (stereo not drawn) [Compound 9]	4.8
C=CCN1C(=O)C(CC(=O)NOC)SC1=Nc1cc(-n2c(=O)cc(C(F)(F)F)n(C)c2=O)c(F)cc1Cl (stereo not drawn) [Compound 85]	4.0
CCOC(=O)CN1C(=O)C(C)SC1=Nc1cc(-n2c(=O)cc(C(F)(F)F)n(C)c2=O)c(F)cc1Cl (stereo not drawn) [Compound 12]	6.5

Prompt line: Requested field: ZEAMX herbicidal rating. Item: CCOC(=O)CN1C(=O)C(CC(=O)OC(C)C(=O)OCC)S/C1=N/c1cc(-n2c(=O)cc(C(F)(F)F)n(C)c2=O)c(F)cc1Cl (stereo not drawn) [Compound 87]
Response line: 4.0

Prompt line: Another compound: CCOC(=O)CN1C(=O)C(CC)SC1=Nc1cc(-n2c(=O)cc(C(F)(F)F)n(C)c2=O)c(F)cc1Cl (stereo not drawn) [Compound 13]
Response line: 7.0

Prompt line: Also CCC1SC(=Nc2cc(-n3c(=O)cc(C(F)(F)F)n(C)c3=O)c(F)cc2Cl)N(C)C1=O (stereo not drawn) [Compound 10] ?
Response line: 4.3
